# MEASURED_ON: T1, human CD3 expressed on cells (Jurkat cells; human CD4 T cells) (human, UniProt P07766 23-207)
# T1 construct: whole, on cells; also called human CD3 receptor on T cell surface; human CD3 expressing cells (Jurkat cells)
# TEST_DETAILS: flow cytometry on Jurkat cells
MEASURED_PROPERTY: EC50 (nM)
One number for each entry, in nM.

BINDER | EC50, nM
WBP3311_2.615.8 (antibody, V domains shown, Mouse monoclonal antibody from hybridoma; also called W3311-2.615.8) VH: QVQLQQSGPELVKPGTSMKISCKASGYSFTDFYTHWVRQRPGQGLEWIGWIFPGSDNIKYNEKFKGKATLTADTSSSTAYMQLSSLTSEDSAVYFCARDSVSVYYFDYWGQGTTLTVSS VL: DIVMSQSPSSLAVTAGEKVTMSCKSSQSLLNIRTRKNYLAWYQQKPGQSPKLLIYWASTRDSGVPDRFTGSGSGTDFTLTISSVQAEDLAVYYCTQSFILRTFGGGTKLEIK | 4.65
WBP3311_2.383.47 (antibody, V domains shown, Mouse monoclonal antibody from hybridoma) VH: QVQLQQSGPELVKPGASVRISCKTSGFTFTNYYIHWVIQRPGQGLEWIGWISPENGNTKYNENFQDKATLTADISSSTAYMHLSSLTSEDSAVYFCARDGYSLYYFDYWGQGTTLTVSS VL: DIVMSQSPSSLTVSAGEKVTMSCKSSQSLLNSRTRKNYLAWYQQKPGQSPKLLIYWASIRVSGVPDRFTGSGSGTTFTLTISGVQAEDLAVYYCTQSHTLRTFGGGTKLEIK | 0.91
WBP3311_2.306.4 (antibody, IgG2b, V domains shown, Mouse monoclonal antibody from hybridoma; also called W3311-2.306.4; W3311-2.306.4-mIgG2bK) VH: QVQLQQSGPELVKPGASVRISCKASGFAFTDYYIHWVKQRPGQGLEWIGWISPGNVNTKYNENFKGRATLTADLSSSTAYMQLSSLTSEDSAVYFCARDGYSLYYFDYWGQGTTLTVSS VL: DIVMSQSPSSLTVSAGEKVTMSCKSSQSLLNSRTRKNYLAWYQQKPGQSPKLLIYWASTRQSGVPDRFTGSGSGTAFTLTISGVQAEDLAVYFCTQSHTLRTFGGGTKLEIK | 0.57

Please report EC50 for every entry that follows.
1. WBP3311_2.482.5 (antibody, V domains shown, Mouse monoclonal antibody from hybridoma; also called W3311-2.482.5) VH: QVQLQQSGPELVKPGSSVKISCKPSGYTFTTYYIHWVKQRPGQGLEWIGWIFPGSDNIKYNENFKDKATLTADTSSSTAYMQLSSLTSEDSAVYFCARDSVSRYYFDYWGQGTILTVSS VL: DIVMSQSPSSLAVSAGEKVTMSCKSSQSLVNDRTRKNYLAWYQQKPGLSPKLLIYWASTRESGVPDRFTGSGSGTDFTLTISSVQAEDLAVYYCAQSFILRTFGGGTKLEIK
2. WBP331_2.488.33 (antibody, V domains shown, Mouse monoclonal antibody from hybridoma; also called WBP3311_2.488.33; W3311-2.488.33) VH: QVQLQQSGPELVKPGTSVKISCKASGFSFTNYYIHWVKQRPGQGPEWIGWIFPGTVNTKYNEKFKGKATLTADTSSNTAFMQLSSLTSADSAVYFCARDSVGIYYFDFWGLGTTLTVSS VL: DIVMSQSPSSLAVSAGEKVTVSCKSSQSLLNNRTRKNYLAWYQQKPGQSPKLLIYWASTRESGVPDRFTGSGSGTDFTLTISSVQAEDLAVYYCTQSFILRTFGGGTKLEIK

Output:
[3.71, 2.97]

Please report EC50 for every entry that follows.
1. WBP3311_2.166.48 (antibody, IgG2a, V domains shown, Mouse monoclonal antibody from hybridoma; also called W3311-2.166.48; W3311_2.166.48) VH: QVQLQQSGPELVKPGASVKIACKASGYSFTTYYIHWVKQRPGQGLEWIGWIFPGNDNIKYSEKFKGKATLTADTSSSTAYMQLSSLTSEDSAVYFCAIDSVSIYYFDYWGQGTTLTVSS VL: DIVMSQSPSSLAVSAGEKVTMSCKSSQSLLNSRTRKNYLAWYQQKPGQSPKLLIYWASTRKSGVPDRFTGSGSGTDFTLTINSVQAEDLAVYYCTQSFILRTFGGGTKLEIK
2. WBP3311_2.400.5 (antibody, V domains shown, Mouse monoclonal antibody from hybridoma; also called W3311-2.400.5) VH: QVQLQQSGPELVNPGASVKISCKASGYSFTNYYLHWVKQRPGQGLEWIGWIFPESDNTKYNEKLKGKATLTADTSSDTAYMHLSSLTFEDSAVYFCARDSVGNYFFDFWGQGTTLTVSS VL: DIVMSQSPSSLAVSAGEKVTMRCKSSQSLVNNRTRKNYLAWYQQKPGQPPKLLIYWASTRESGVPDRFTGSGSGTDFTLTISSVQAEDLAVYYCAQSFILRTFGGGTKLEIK

Output:
[6.91, 2.5]

For reference, reported EC50 for WBP3311_2.844.8 (antibody, V domains shown, Mouse monoclonal antibody from hybridoma; also called W3311-2.844.8; clone 2.844.8) VH: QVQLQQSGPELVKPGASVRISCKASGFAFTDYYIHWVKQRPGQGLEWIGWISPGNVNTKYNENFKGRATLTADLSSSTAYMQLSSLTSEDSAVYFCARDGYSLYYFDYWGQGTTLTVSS VL: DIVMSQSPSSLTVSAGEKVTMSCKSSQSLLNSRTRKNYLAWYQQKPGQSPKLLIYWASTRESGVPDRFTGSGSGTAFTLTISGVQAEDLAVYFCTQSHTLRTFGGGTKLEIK stands at 0.77
